Test system: human Factor 11 mRNA
Assay: Antisense inhibition of human Factor 11 in HepG2 cells, electroporation, 8,000 nM (Example 30)
Format: cell-based
Details: electroporation, 8,000 nM antisense oligonucleotide
Strand notation (5' to 3'): a small letter for the sugar, then the base; units joined by * are phosphorothioate-linked, units joined directly phosphodiester-linked; [ ] holds rarer units or linkages, { } end groups; capitals alone tell only the bases. e = 2'-O-(2-methoxyethyl) (MOE); [5mC] = 5-methylcytosine; d = 2'-deoxy (DNA)
Record form. Attribute: Percent inhibition of human Factor 11 mRNA levels. Fill in for each entry.

Request: Reported Percent inhibition of human Factor 11 mRNA levels for 445541 (antisense eG*eG*e[5mC]*eA*eG*d[5mC]*dG*dG*dA*d[5mC]*dG*dG*d[5mC]*eA*eT*eT*eG*eG) [compound 445541] : what is it?
Response: 80%

Request: Continue with 445513 (antisense eG*e[5mC]*eA*eG*e[5mC]*eG*dG*dA*d[5mC]*dG*dG*d[5mC]*dA*dT*eT*eG*eG*eT*eG*e[5mC]) [compound 445513]
Response: 85%

Request: Continue with 445507 (antisense eG*eA*e[5mC]*eG*eG*e[5mC]*dA*dT*dT*dG*dG*dT*dG*d[5mC]*eA*e[5mC]*eA*eG*eT*eT) [compound 445507]
Response: 85%

###

Details: mouse, in vivo, sc, 50 mg/kg
e = 2'-O-(2-methoxyethyl) (MOE); d = 2'-deoxy (DNA)
MEASURE NAME: monocytes (cells/μL)
# unit: cells/μL | format: bare number

Request: Reported monocytes for ISIS 416855: MOE gapmer, nucleobases 1275 to 1318 of SEQ ID NO: 1 (Table 8) (antisense CATTGGTGCACAGTTTCTGG; MOE gapmer, wing and gap sizes not given here) : what is it?
Response: 263

Request: Continue with ISIS 416866: MOE gapmer, nucleobases 1275 to 1318 of SEQ ID NO: 1 (Table 8) (antisense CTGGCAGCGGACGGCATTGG; MOE gapmer, wing and gap sizes not given here)
Response: 211

Request: Continue with ISIS 412224: 5-10-5 MOE gapmer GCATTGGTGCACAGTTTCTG (sugars from the 5' end e5 d10 e5, backbone and methylation of C not given here)
Response: 195

Request: Continue with ISIS 416858: MOE gapmer, nucleobases 1275 to 1318 of SEQ ID NO: 1 (Table 8) (antisense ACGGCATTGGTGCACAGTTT; MOE gapmer, wing and gap sizes not given here)
Response: 248

Request: Continue with ISIS 416860: MOE gapmer, nucleobases 1275 to 1318 of SEQ ID NO: 1 (Table 8) (antisense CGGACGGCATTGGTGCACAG; MOE gapmer, wing and gap sizes not given here)
Response: 161

Request: Continue with ISIS 416863: MOE gapmer, nucleobases 1275 to 1318 of SEQ ID NO: 1 (Table 8) (antisense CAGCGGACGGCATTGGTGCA; MOE gapmer, wing and gap sizes not given here)
Response: 226

Request: Continue with ISIS 416854: MOE gapmer, nucleobases 1275 to 1318 of SEQ ID NO: 1 (Table 8) (antisense ATTGGTGCACAGTTTCTGGC; MOE gapmer, wing and gap sizes not given here)
Response: 455

Request: Continue with ISIS 412225: 5-10-5 MOE gapmer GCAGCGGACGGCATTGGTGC (sugars from the 5' end e5 d10 e5, backbone and methylation of C not given here)
Response: 293

Request: Continue with ISIS 416865: MOE gapmer, nucleobases 1275 to 1318 of SEQ ID NO: 1 (Table 8) (antisense TGGCAGCGGACGGCATTGGT; MOE gapmer, wing and gap sizes not given here)
Response: 315

Request: Continue with ISIS 416864: MOE gapmer, nucleobases 1275 to 1318 of SEQ ID NO: 1 (Table 8) (antisense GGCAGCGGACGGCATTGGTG; MOE gapmer, wing and gap sizes not given here)
Response: 141

Request: Continue with ISIS 416851: MOE gapmer, nucleobases 1275 to 1318 of SEQ ID NO: 1 (Table 8) (antisense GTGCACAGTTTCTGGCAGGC; MOE gapmer, wing and gap sizes not given here)
Response: 194

Request: Continue with ISIS 416849: MOE gapmer, nucleobases 1275 to 1318 of SEQ ID NO: 1 (Table 8) (antisense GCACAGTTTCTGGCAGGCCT; MOE gapmer, wing and gap sizes not given here)
Response: 253

Request: Continue with ISIS 416859: MOE gapmer, nucleobases 1275 to 1318 of SEQ ID NO: 1 (Table 8) (antisense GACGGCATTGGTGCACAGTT; MOE gapmer, wing and gap sizes not given here)
Response: 229

Request: Continue with ISIS 416862: MOE gapmer, nucleobases 1275 to 1318 of SEQ ID NO: 1 (Table 8) (antisense AGCGGACGGCATTGGTGCAC; MOE gapmer, wing and gap sizes not given here)
Response: 174

Request: Continue with ISIS 416856: MOE gapmer, nucleobases 1275 to 1318 of SEQ ID NO: 1 (Table 8) (antisense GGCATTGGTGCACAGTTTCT; MOE gapmer, wing and gap sizes not given here)
Response: 151

Request: Continue with ISIS 416852: MOE gapmer, nucleobases 1275 to 1318 of SEQ ID NO: 1 (Table 8) (antisense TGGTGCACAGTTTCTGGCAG; MOE gapmer, wing and gap sizes not given here)
Response: 189

Request: Continue with ISIS 416867: MOE gapmer, nucleobases 1275 to 1318 of SEQ ID NO: 1 (Table 8) (antisense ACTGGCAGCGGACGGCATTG; MOE gapmer, wing and gap sizes not given here)
Response: 188

###

Conditions: mouse, in vivo, sc, 50 mg/kg
e = 2'-O-(2-methoxyethyl) (MOE); d = 2'-deoxy (DNA)
Record form. Attribute: Neutrophil. Fill in for each entry.

Request: Reported Neutrophil for ISIS 445509: 5-8-5 or 6-8-6 MOE microwalk gapmer (Table 44) (antisense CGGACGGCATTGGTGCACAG; sugars from the 5' end e6 d8 e6, backbone and methylation of C not given here) : what is it?
Response: 1104

Request: Continue with ISIS 445498: 5-8-5 or 6-8-6 MOE microwalk gapmer (Table 44) (antisense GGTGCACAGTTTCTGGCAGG; sugars from the 5' end e6 d8 e6, backbone and methylation of C not given here)
Response: 1197

Request: Continue with ISIS 445532: 5-8-5 or 6-8-6 MOE microwalk gapmer (Table 44) (antisense CGGCATTGGTGCACAGTT; sugars from the 5' end e5 d8 e5, backbone and methylation of C not given here)
Response: 1116

Request: Continue with ISIS 445503: 5-8-5 or 6-8-6 MOE microwalk gapmer (Table 44) (antisense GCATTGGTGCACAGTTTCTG; sugars from the 5' end e6 d8 e6, backbone and methylation of C not given here)
Response: 1475

Request: Continue with ISIS 445513: 5-8-5 or 6-8-6 MOE microwalk gapmer (Table 44) (antisense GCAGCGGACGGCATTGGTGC; sugars from the 5' end e6 d8 e6, backbone and methylation of C not given here)
Response: 959

Request: Continue with ISIS 445504: 5-8-5 or 6-8-6 MOE microwalk gapmer (Table 44) (antisense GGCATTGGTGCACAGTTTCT; sugars from the 5' end e6 d8 e6, backbone and methylation of C not given here)
Response: 959

###

Assay: Hematology assays in cynomolgus monkeys (Example 46)
Type: in vivo
Settings: Day 31
Strand notation (5' to 3'): a small letter for the sugar, then the base; units joined by * are phosphorothioate-linked, units joined directly phosphodiester-linked; [ ] holds rarer units or linkages, { } end groups; capitals alone tell only the bases. e = 2'-O-(2-methoxyethyl) (MOE); [5mC] = 5-methylcytosine; d = 2'-deoxy (DNA)
MEASURE NAME: hemoglobin content (g/dL)
# unit: g/dL | format: bare number

Request: Reported hemoglobin content for ISIS 449707: 3-8-3, 4-8-4, 2-10-2, 3-10-3 or 4-10-4 MOE microwalk gapmer (Table 46) (antisense e[5mC]*eA*e[5mC]*eA*dG*dT*dT*dT*d[5mC]*dT*dG*dG*e[5mC]*eA*eG*eG) : what is it?
Response: 12.7

Request: Continue with ISIS 449708: 3-8-3, 4-8-4, 2-10-2, 3-10-3 or 4-10-4 MOE microwalk gapmer (Table 46) (antisense eA*e[5mC]*eA*dG*dT*dT*dT*d[5mC]*dT*dG*dG*e[5mC]*eA*eG)
Response: 13.0

Request: Continue with ISIS 416858: MOE gapmer, nucleobases 1275 to 1318 of SEQ ID NO: 1 (Table 8) (antisense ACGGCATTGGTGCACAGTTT; MOE gapmer, wing and gap sizes not given here)
Response: 12.8

Request: Continue with ISIS 449711: 3-8-3, 4-8-4, 2-10-2, 3-10-3 or 4-10-4 MOE microwalk gapmer (Table 46) (antisense eA*e[5mC]*dA*dG*dT*dT*dT*d[5mC]*dT*dG*dG*d[5mC]*eA*eG)
Response: 11.8
